- targetEntity: CaCdc42 (R150K), sNBD-labeled and GMPPCP-loaded (Candida albicans)
- protocolNotes: fluorescence cross-titration of sNBD-labeled CaCdc42 (R150K) in the presence of cCla4
observable: pKd
One number for each entry, as −log10 of the molar value.

Value lookup for pKd; key = GNSGVSGPINFTHKVHVGFDPA (modifications not checked) [mCla4, O14427 227-248] 5.39
